Items are presented alongside their recorded log10 IC50.
STUDY_TARGET: human LTA4 hydrolase (Homo sapiens, UniProt P09960)
Sequence (P09960 whole entry): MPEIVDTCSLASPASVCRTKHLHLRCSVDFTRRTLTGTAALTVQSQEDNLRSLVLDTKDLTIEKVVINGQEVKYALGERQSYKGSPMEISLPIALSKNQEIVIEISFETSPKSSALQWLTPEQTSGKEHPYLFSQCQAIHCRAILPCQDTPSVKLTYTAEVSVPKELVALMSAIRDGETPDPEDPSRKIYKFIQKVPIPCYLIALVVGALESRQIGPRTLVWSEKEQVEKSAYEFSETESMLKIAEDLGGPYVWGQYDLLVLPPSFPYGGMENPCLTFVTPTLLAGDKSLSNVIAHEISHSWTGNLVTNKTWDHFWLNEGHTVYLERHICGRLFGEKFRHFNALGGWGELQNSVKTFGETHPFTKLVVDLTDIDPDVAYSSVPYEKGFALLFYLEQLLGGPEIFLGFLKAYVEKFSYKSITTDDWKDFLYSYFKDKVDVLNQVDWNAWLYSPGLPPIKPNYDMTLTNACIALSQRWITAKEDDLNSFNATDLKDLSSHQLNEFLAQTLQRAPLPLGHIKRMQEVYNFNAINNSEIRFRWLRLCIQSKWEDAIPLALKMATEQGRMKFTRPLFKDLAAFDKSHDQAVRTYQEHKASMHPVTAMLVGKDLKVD
ASSAY_REMARKS: LTA4H Enzyme assay (cleavage of Arg-AMC, fluorescence)
Format: biochemical
Form field - Quantity: IC50; Unit: nM; Scale: log10

> print(dat)
                                   compound  numeric.value
1  NC(=O)N[C@@H]1C[C@H]2CC[C@@H](C1)N2Cc1ccc([C@H]2COc3cccnc3O2)cc1 [Example 273]          -0.80
2  NC(=O)N[C@H]1C[C@H]2CC[C@@H](C1)N2Cc1ccc([C@H]2COc3cccnc3O2)cc1 [Example 259]          -0.52
3  NC(=O)N1CC2(CCN(Cc3ccc([C@H]4COc5cccnc5O4)cc3)CC2)c2ccccc21 [Example 282]          -0.77

Query (compound): c1cnc2c(c1)OC[C@H](c1ccc(CN3[C@H]4CC[C@@H]3CC4)cc1)O2 [Example 145] ; field requested: log10 IC50
-1.05

Query (compound): COC1CCN(Cc2ccc([C@H]3COc4ccccc4O3)cc2)CC1 [Example 98] ; field requested: log10 IC50
-0.21

Query (compound): O=C(O)C1(c2ccccc2)CCN(Cc2ccc([C@H]3COc4cccnc4O3)cc2)CC1 [Example 294] ; field requested: log10 IC50
0.76

Query (compound): CN(C)CCN(C)Cc1ccc([C@H]2COc3ccccc3O2)cc1 [Example 79] ; field requested: log10 IC50
-0.29

Data provenance: patent US8946203B2
